# Test system: PRP4
# runConditions: concentration: 1 μM,replicates: in singlicate; n = 1;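 further: KINOMEscan kinase panel screen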
Criterion: %Inh strictly under 10%. Met: Criterion met. Not met: Criterion not met.

Sample answers from the record:
> print(dat)
                                   compound              label
1  COC(=O)Nc1nc2cc(Oc3ccc(NC(=O)Nc4cc(C(F)(F)F)ccc4Cl)cc3)ccc2[nH]1.Cl  Criterion not met
2  O=C(NCC1CC1)c1ccc(-c2cc(C(=O)NC3CC3)ccc2F)cc1  Criterion not met
3  Cc1ccc(C(=O)Nc2ccc(Oc3ccc4nc(NC(=O)C5CC5)cn4c3)c(F)c2)c(=O)n1-c1ccccc1  Criterion not met
4  N#Cc1cccc(C(=O)NC2CCN(c3ccnc(Nc4ccc(F)cc4)n3)C2)c1 (centres unmarked)  Criterion not met

Answer whether the compound C[C@@H]1CCN(C(=O)N2CCCC2)C[C@@H]1N(C)c1ncnc2[nH]ccc12 has %Inh strictly less than 10%
Criterion met

Answer whether the compound CCOC(=O)N1CCC(n2cnc(-c3ccc(F)cc3)c2-c2ccnc(N)n2)CC1 has %Inh strictly less than 10%
Criterion met

Answer whether the compound C[C@@H](Oc1cc(-n2cnc3cc(-c4cnn(C)c4)ccc32)sc1C(N)=O)c1ccccc1Cl has %Inh strictly less than 10%
Criterion not met

---

# System: TNK1
# runConditions: concentration: 1 μM,replicates: in singlicate; n = 1
propertyName: %Inh (%)
Only the number, expressed in %, is required.

Reference set (2 entries):
> print(dat)
                                   compound  readingunit  numericreadout
1  CSc1nccc(-c2c(-c3ccc(F)cc3)ncn2CCCN2CCOCC2)n1.Cl [SB-217146]            %              26
2  COc1ccc(Nc2nccc(N3CCC(NC(=O)c4cccc(C#N)c4)C3)n2)cc1 (stereo not drawn) [GSK1379730]            %               0

Sample CCCC(=O)Nc1n[nH]c2ncccc12 [SB-601436] — what was its %Inh?
0

---

# Test system: ACVR1
# runConditions: concentration: 1 μM,replicates: in singlicate; n = 1
Quick reference: %Inh of the listed items.
Only the number, expressed in %, is required.

Reference set (7 entries):
> print(dat)
                                   molecule  propertyname  numericreadout
1  CCOC(=O)N1CCC(n2cnc(-c3ccc(F)cc3)c2-c2ccnc(N)n2)CC1 [SB-219952]          %Inh              28
2  Cl.Nc1n[nH]c2cc(-c3ccccn3)ccc12 [GSK2189892]          %Inh              10
3  Cl.c1ccc(Oc2ccc(Nc3ccnc4cc(-c5ccc(CN6CCNCC6)o5)ccc34)cc2)nc1 [GW567142]          %Inh               0
4  Cc1ccc(C(=O)Nc2ccc(Oc3ccc4nc(NC(=O)C5CC5)cn4c3)c(F)c2)c(=O)n1-c1ccccc1          %Inh               0
5  CC(C(=O)NC1CCN(c2ccnc(Nc3ccc(F)cc3)n2)C1)c1ccc(Cl)cc1 (centres unmarked) [GSK1379713]          %Inh               0
6  CC(=O)Nc1ccc(-c2cc3ncnc(SCC(=O)O)c3s2)cc1          %Inh               0
7  O=C(Nc1cccc(Oc2ccc3nccn3n2)c1)Nc1cccc(C(F)(F)F)c1          %Inh               0

Please find the next molecule below.
Sample CC(C)S(=O)(=O)N1CCN(Cc2ccc3c(c2)nc(NC(=O)c2ccsc2)n3C[C@H](O)c2ccccc2)CC1 [GW635815] — what was its %Inh?
0

---

# Test system: JNK2
# Construct: gene MAPK9
# runConditions: concentration: 1 μM,replicates: in singlicate; n = 1
propertyName: %Inh (%)
Only the number, expressed in %, is required.

> print(dat)
                               molecule  propertyname  numericreadout
1  Cn1cc(-c2cccc3c(N)c(C(N)=O)nnc23)cn1          %Inh               5

Please find the next molecule below.
Sample O=c1[nH]cc(-c2ccc(O)cc2)c2sc(-c3ccncc3)cc12 [GSK1033723] — what was its %Inh?
0

---

# System: INSR
# runConditions: concentration: 1 μM,replicates: in singlicate; n = 1
propertyName: %Inh (%)
Only the number, expressed in %, is required.

Sample NC(=O)c1ccc(-c2cc3ncnc(SCC(=O)O)c3s2)cc1 — what was its %Inh?
0

Sample Cc1ccn2nc(-c3ccc(F)cc3)c(-c3ccncc3)c2c1.Cl — what was its %Inh?
0

Sample Cc1nnc(-c2ccc3occ(-c4ccc(S(C)=O)cc4)c3n2)o1 (centres unmarked) — what was its %Inh?
0

Sample COC(=O)Nc1nc2cc(Oc3ccc(NC(=O)Nc4cc(C(F)(F)F)ccc4Cl)cc3)ccc2[nH]1.Cl — what was its %Inh?
0

Sample CN(c1ccccc1CNc1nc(Nc2ccc3c(c2)CC(=O)N3)ncc1C(F)(F)F)S(C)(=O)=O — what was its %Inh?
93.5

---

# Test system: TGFBR1
# runConditions: concentration: 1 μM,replicates: in singlicate; n = 1
propertyName: %Inh (%)
Only the number, expressed in %, is required.

> print(dat)
                                   compound  targetsystem  readingunit  numericreadout
1  COc1cc2ncn(-c3cc(OCC4CCCCC4)c(C(N)=O)s3)c2cc1OC        TGFBR1            %               0
2  Cl.Cl.NC[C@H](CC1CCCCC1)NC(=O)c1ccc(-c2ccnc3[nH]ccc23)s1        TGFBR1            %               0
3  COc1cc2nccc(Nc3ccc(Oc4ccccc4)cc3)c2cc1OC.Cl        TGFBR1            %               2
4  COC(=O)Nc1nc2cc(Oc3ccc(NC(=O)Nc4cc(C(F)(F)F)ccc4Cl)cc3)ccc2[nH]1.Cl        TGFBR1            %              28
5  c1ccc(Oc2ccc(Nc3ccnc4ccc(-c5ccccn5)cc34)cc2)cc1        TGFBR1            %              10
6  CS(=O)(=O)c1cccc(CNc2nc(Nc3ccc4c(c3)[C@@H]3C[C@@H]4CNC3=O)ncc2C(F)(F)F)c1        TGFBR1            %               0

API: value(readout= %Inh, system= TGFBR1, query= FC(F)(F)c1cc(Br)cc(Nc2nccc(-c3cnn4ncccc34)n2)c1 )
27

API: value(readout= %Inh, system= TGFBR1, query= Cn1ccc2ncnc(Oc3ccc(NC(=O)Nc4cc(C(C)(C)C)on4)c(Cl)c3)c21 )
13

API: value(readout= %Inh, system= TGFBR1, query= CSc1nccc(-c2c(-c3ccc(F)cc3)ncn2CCCN2CCOCC2)n1.Cl )
0

API: value(readout= %Inh, system= TGFBR1, query= Cn1cc(-c2cccc3c(N)c(C(N)=O)nnc23)cn1 )
0

API: value(readout= %Inh, system= TGFBR1, query= CCCC(=O)Nc1n[nH]c2ncccc12 )
0

API: value(readout= %Inh, system= TGFBR1, query= CN(c1ccccc1CNc1nc(Nc2ccc3c(c2)CC(=O)N3)ncc1C(F)(F)F)S(C)(=O)=O )
0

API: value(readout= %Inh, system= TGFBR1, query= O=C(Nc1cccc(Oc2ccc3nccn3n2)c1)Nc1cccc(C(F)(F)F)c1 )
4

API: value(readout= %Inh, system= TGFBR1, query= COc1cc2c(Nc3ccc(NC(=O)c4ccccc4)cc3)ncnc2cc1OCCCN1CCOCC1 )
0

API: value(readout= %Inh, system= TGFBR1, query= Cc1nnc(-c2ccc3occ(-c4ccc(S(C)=O)cc4)c3n2)o1 (stereo not drawn) )
0

API: value(readout= %Inh, system= TGFBR1, query= O=C(NOCC1CC1)c1cc(Br)c(F)c(F)c1Nc1ccc(I)cc1Cl )
0

API: value(readout= %Inh, system= TGFBR1, query= OCCn1cc(-c2cnc3nnn(Cc4ccc5ncccc5c4)c3n2)cn1 )
0

API: value(readout= %Inh, system= TGFBR1, query= Cn1ccc2ncnc(Oc3ccc(NC(=O)Nc4ccnc(C(F)(F)F)c4)c(Cl)c3)c21 )
0

---

# System: ABL1-nonphosphorylated
# runConditions: concentration: 1 μM,replicates: in singlicate; n = 1
propertyName: %Inh (%)
Only the number, expressed in %, is required.

> print(dat)
                                   compound  readingunit  numericreadout
1  CN1CCN(CCNc2nc3cc(Oc4ccc(NC(=O)Nc5cc(C(F)(F)F)ccc5F)cc4)ccc3[nH]2)CC1.Cl.Cl            %              51
2  N#Cc1cccc(C(=O)NC2CCN(c3ccnc(Nc4ccc(F)cc4)n3)C2)c1 (stereo not shown)            %               0
3     O=C(Nc1n[nH]c2cc(-c3ccco3)ccc12)C1CC1            %              37

Sample CCOC(=O)N1CCC(n2cnc(-c3ccc(F)cc3)c2-c2ccnc(N)n2)CC1 — what was its %Inh?
60
